The measurements presented in this section are drawn from patent US9131685B2.

System: soybean seeds
experiment: Germination test on soybean (agar plates, climate chamber)
Assay type: in vivo, soybean (variety Cordoba)
condition: seed treatment, 10° C. in darkness, after 4 days, average of 5 replicates of 20 seeds

[
  {
    "molecule": "CC1=CC(O/C=C2/C(=O)OC3c4ccccc4CC23)OC1=O (stereo not shown)",
    "Root length, cm": 5.19
  },
  {
    "molecule": "CCCCCC/C=C\\CCCOc1cccc(C(=O)NC2C(O[C@@H]3C(CO)OC(OC4C(CO)O[C@@H](O[C@@H]5C(CO)OC(OC6C(CO[C@@H]7OC(C)C(O)C(O)C7OC)OC(O)C(NC(C)=O)C6O)C(NC(C)=O)C5O)C(NC(C)=O)C4O)C(NC(C)=O)C3O)OC(CO)[C@@H](O)C2O)c1 (stereo partly shown)",
    "Root length, cm": 5.13
  },
  {
    "molecule": "CCCCCC/C=C\\CCCOc1cccc(C(=O)NC2C(O[C@@H]3C(CO)OC(OC4C(CO)O[C@@H](O[C@@H]5C(CO)OC(OC6C(CO)OC(O)C(NC(C)=O)C6O)C(NC(C)=O)C5O)C(NC(C)=O)C4O)C(NC(C)=O)C3O)OC(CO)[C@@H](O)C2O)c1 (stereo partly shown)",
    "Root length, cm": 5.64
  },
  {
    "molecule": "CCCCCC/C=C\\CCCOc1cccc(C(=O)NC2C(O)[C@H](O)C(CO)O[C@H]2O[C@@H]2C(CO)O[C@@H](O[C@@H]3C(CO)O[C@@H](O[C@@H]4C(CO)O[C@@H](O[C@@H]5C(CO[C@@H]6OC(C)[C@@H](O)C(O)C6O)OC(O)C(NC(C)=O)C5O)C(NC(C)=O)C4O)C(NC(C)=O)C3O)C(NC(C)=O)C2O)c1 (stereo partly shown)",
    "Root length, cm": 5.61
  }
]
